Molecular target: DNA-3-methyladenine glycosylase (Homo sapiens);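 further: enzyme assay where MPG cuts a quenched duplex DNA oligonucleotide probe, paired with APE1 for strand incision and turnover, read as fluorescence at 594 nm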
Settings: Compound Concentration 10.0 uM, Hit No
Description: Inhibition of MPG by quantifying inhibition of MPG-mediated cleavage and dissociation of quenched duplex DNA oligonucleotides, measured as fluorescence at 594 nm. To generate a functional strand incision and increase turn-over this assay is coupled to APE1.
recorded_metric: inhibition (%)
Answers are plain numbers, in %.

Consider the following illustrative entries.
* CC(=O)[C@H]1CC[C@H]2[C@@H]3CC[C@H]4C[C@H](O)CC[C@]4(C)[C@H]3CC[C@]12C | 31.5
* CCCCCN1C(=O)C2(COc3cc4c(cc32)OCO4)c2ccccc21 (stereo not given) | 32.6

Give inhibition for each of the items listed below.
1. O=c1ccn([C@@H]2O[C@H](COP(=O)(O)OP(=O)(O)O)[C@@H](O)[C@H]2O)c(=O)[nH]1
2. Cc1cc(C(C)(C)C)c(O)c(C)c1CC1=NCCN1
3. c1ccc2nc(N3CCNCC3)ccc2c1

[-2.06, 3.54, -3.87]

Where do these numbers come from? They come from ChEMBL document CHEMBL5665443.
